Hello, the source for this data is ChEMBL document CHEMBL1131096, in case you need it.

molecular target: Melatonin receptor type 1A (Homo sapiens)
Sequence (P48039 whole entry): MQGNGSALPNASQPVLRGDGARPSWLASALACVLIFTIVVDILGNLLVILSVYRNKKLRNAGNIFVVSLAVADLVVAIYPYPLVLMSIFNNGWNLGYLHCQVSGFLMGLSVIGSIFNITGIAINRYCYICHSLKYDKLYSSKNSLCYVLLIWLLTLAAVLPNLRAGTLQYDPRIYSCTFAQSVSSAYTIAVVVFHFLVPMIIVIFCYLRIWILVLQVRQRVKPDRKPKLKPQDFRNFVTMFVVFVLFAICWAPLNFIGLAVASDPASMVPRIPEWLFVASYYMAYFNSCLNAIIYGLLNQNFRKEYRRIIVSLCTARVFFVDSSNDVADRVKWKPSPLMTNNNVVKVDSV
assay-readout: pRA

// known answers, use as guide
> print(dat)
                           sample.smiles                             target.entity  quantitative.result
 1             CC(=O)NCCc1cc2ccccc2[nH]1  Melatonin receptor type 1A (Homo sapiens)                -3.97
 2        COc1ccc2[nH]c(CCCNC(C)=O)cc2c1  Melatonin receptor type 1A (Homo sapiens)                -4.12
 3         COc1ccc2cc(CCNC(C)=O)n(C)c2c1  Melatonin receptor type 1A (Homo sapiens)                -3.81
 4         COc1cccc2cc(CCNC(C)=O)[nH]c12  Melatonin receptor type 1A (Homo sapiens)                -4.23
 5          COc1cccc2[nH]c(CNC(C)=O)cc12  Melatonin receptor type 1A (Homo sapiens)                -3.84
 6  CCC(=O)NCCc1cc2c(OC)cccc2n1Cc1ccccc1  Melatonin receptor type 1A (Homo sapiens)                -3.52
 7         COc1ccc2[nH]c(CCNC(C)=O)cc2c1  Melatonin receptor type 1A (Homo sapiens)                -4.78
 8        CCC(=O)NCCc1cc2c(OC)cccc2[nH]1  Melatonin receptor type 1A (Homo sapiens)                -2.84
 9   CCC(=O)NCc1cc2c(OC)cccc2n1Cc1ccccc1  Melatonin receptor type 1A (Homo sapiens)                -3.59
10   COc1cccc2c1cc(CCNC(C)=O)n2-c1ccccc1  Melatonin receptor type 1A (Homo sapiens)                 -2.6

(A) CCC(=O)NCCc1cc2c(OC)cccc2n1-c1ccccc1
(B) COc1ccc2c(Br)c(CCNC(C)=O)[nH]c2c1
(C) COc1ccc2[nH]cc(CCNC(C)=O)c2c1
IN: Parameters: sort_field (pRA), sort_dir (desc). Hello, could you send the labels back in the order asked? Thank you.
OUT: C, A, B
(C: 0, A: -2.42, B: -4.19)
